Data provenance is PubChem BioAssay.

# assay.explanation: HCT116 colon cancer cell growth inhibition, primary screen, CellTiter-Glo luminescence, NPC library (AID 1117342)
# details: at 20 µM (top of the series)
reported.metric: inhibition of viability (%)
Numbers only, in %.

Cc1ncc(CSSCc2cnc(C)c(O)c2CO)c(CO)c1O    14.3

Record inhibition of viability for all entries; do not skip any.
1. COc1ccc(-c2nc3ccc(C4=NNC(=O)CC4C)cc3[nH]2)cc1 (centres undefined)
2. O=C1OC(CN2CCOCC2)CN1/N=C/c1ccc([N+](=O)[O-])o1 (centres undefined)
3. C[C@H]1O[C@H](O[C@H]2[C@H](O)[C@@H](O)[C@@H](O[C@H]3[C@H](O)[C@@H](O)[C@H](O)O[C@@H]3CO)O[C@@H]2CO)[C@H](O)[C@@H](O)[C@@H]1N[C@H]1C=C(CO)[C@@H](O)[C@H](O)[C@H]1O
4. Cc1cccn2c(=O)c(-c3nnn[nH]3)cnc12
5. COc1cccc(N(C)C(=S)Oc2ccc3c(c2)CCCC3)n1
6. CC(C)(C)C(=O)OCOP(=O)(COCCn1cnc2c(N)ncnc21)OCOC(=O)C(C)(C)C
7. CCOc1nc2cccc(C(=O)O)c2n1Cc1ccc(-c2ccccc2-c2nn[nH]n2)cc1
8. CCN(C)C(=O)Oc1cccc([C@H](C)N(C)C)c1

Completion:
1. 61.7
2. 24.6
3. 18.9
4. 13.5
5. 13.6
6. 73.3
7. -9.8
8. 25.9

###

# assay.explanation: stimulators of nuclear beta-catenin in C2C12, primary screen, imaging, WNT3A-conditioned medium, mouse C2C12, NPC library (AID 1117326)
# details: at 10 µM
Activity calls are given as the source filed them. No stated cut-off is given here; in the data, active means nuclear beta-catenin stimulation mostly above about 4.2% (no sharp cut-off); inactive means mostly below about 10%.
Your response should consist of one outcome taken from YES (active), NO (inactive)

Answered cases to consult:
CCCC(CCC)C(=O)O    NO
N=C(N)c1ccc2cc(OC(=O)c3ccc(N=C(N)N)cc3)ccc2c1    NO
CCCCCCCCCCCCCCCC[N+](C)(C)CCN(Cc1ccc(OC)cc1)c1ncccn1    NO

Prompt: Hi team, can someone confirm the assay call for C[N+](C)(C)CC[N+]1(C)Cc2c(Cl)c(Cl)c(Cl)c(Cl)c2C1 ?
Completion: NO

Prompt: Call for entry O=C1c2ccccc2S(=O)(=O)N1CCCCN1CCN(c2ncccn2)CC1 :
Completion: NO

Prompt: Which result was noted for this compound in the test: CC(=O)Oc1ccc2c(c1)CC[C@@H]1[C@@H]2CC[C@]2(C)[C@@H](O)CC[C@@H]12
Completion: NO

Prompt: Can you look up the reported call for Clc1ccc(C(Cn2ccnc2)OCc2ccsc2Cl)c(Cl)c1 (stereo unspecified) for me?
Completion: NO

Prompt: Please indicate how the test categorized CNS(=O)(=O)CCc1ccc2[nH]cc(C3CCN(C)CC3)c2c1 .
Completion: NO

Prompt: So what was the verdict on C(=C\c1ccccc1)/CN1CCN(C(c2ccccc2)c2ccccc2)CC1 in this test?
Completion: NO

Prompt: State the result this test recorded for Cc1cc(CC(C)CC(C)(C)C)n(O)c(=O)c1 (stereo unspecified) .
Completion: YES

Prompt: Each compound tested received a call. Report the one for CCCNC(C)C(=O)Nc1c(C)csc1C(=O)OC (stereo unspecified) .
Completion: NO

Prompt: For CC(CC=O)CCCC(C)(C)O (stereo unspecified) , what call appears in the results of this test?
Completion: NO

Prompt: Lab log entry: Cc1c(-c2ccc(O)cc2)n(Cc2ccc(OCCN3CCCCCC3)cc2)c2ccc(O)cc12 — outcome as called in the assay?
Completion: YES

Prompt: What did the test return for CCOc1ccccc1OCCN[C@H](C)Cc1ccc(OC)c(S(N)(=O)=O)c1 ?
Completion: NO

Prompt: So what was the verdict on C[C@@H](O)[C@H]1C(=O)N2C(C(=O)O)=C(SCCN=CN)C[C@H]12 in this test?
Completion: NO

Prompt: Dear all, I need the recorded test outcome for CCN1C(=O)NC(c2ccccc2)C1=O (stereo unspecified) , thank you.
Completion: NO

Prompt: Hey, what did the test say about COc1ccc2c(c1OC)C(=O)O[C@@H]2[C@H]1c2c(cc3c(c2OC)OCO3)CCN1C ?
Completion: NO

Prompt: Hi, do you know how CO/N=C(\C(=O)N[C@@H]1C(=O)N2C(C(=O)O)=C(CSc3nc(=O)c(O)nn3C)CS[C@H]12)c1csc(N)n1 came out in this test?
Completion: NO

Prompt: Record request — test call for COc1ccc2c(c1)C(=O)N(CCc1ccc(S(=O)(=O)NC(=O)NC3CCCCC3)cc1)C(=O)C2(C)C
Completion: NO

Prompt: Which outcome was entered for the compound CC(=C(CCOC(=O)C(C)C)SSC(CCOC(=O)C(C)C)=C(C)N(C=O)Cc1cnc(C)nc1N)N(C=O)Cc1cnc(C)nc1N in this test?
Completion: NO

Prompt: Returns: the outcome recorded for Cc1ccc2nc(N)[nH]c(=O)c2c1Sc1ccncc1 in this assay.
Completion: YES

###

# assay.explanation: differential killing of epithelial or mesenchymal cells, primary screen, imaging, PC-3E GFP, TEM4-18 mCherry, co-culture (AID 1345086);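 further: cells exposed to compound for 72 h before imaging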
# details: imaging cell counts, measured here: mesenchymal TEM4-18 mCherry cell survival, at 1 µM
reported.metric: normalised cell number
Give bare numbers.

CC(=O)Oc1cc(C(C)C)c(OCCN(C)C)cc1C    0.9

For each entry beneath this line, provide reported normalised cell number.
1. C=CC(C1=CC(=O)C(OC)=CC1=O)c1ccc(O)cc1 (configuration not stated)
2. C[n+]1c2cc(N)ccc2cc2ccc(N)cc21
3. CC[C@H](/C=C/C(C)C1CCC2C3CCC4=CC(=O)CC[C@]4(C)C3CC[C@]12C)C(C)C (some centres not stated)
4. CC(C(=O)O)c1ccc(N2Cc3ccccc3C2=O)cc1 (configuration not stated)

Completion:
1. 0.95
2. 0.4
3. 0.97
4. 1.31

Please give normalised cell number, item by item, for the list that follows.
1. CN1C2CCC1CC(OC(=O)C(CO)c1ccccc1)C2 (configuration not stated)
2. CC1(C)CC2C1CCC1(C)OC1CCC2(C)O (configuration not stated)
3. COc1c(C)c2c(c(O)c1C/C=C(\C)CCC(=O)OCCN1CCOCC1)C(=O)OC2
4. N=C(N)N1CCc2ccccc2C1
5. CC(=O)N1CCN(c2ccc(OCC3CO[C@](Cn4ccnc4)(c4ccc(Cl)cc4Cl)O3)cc2)CC1 (some centres not stated)
6. CC(C)=CCC/C(C)=C/CO
7. C[C@@]12C(=O)OC(=O)[C@]1(C)C1CCC2O1

Completion:
1: 1; 2: 1.02; 3: 0.88; 4: 1.07; 5: 0.85; 6: 1.03; 7: 1.01

Parameters: items (list). Returns: normalised cell number for each item.
1. CCCOc1cc(N)ccc1C(=O)OCCN(CC)CC
2. COc1ccc2c(c1)OCc1c-2oc2cc(OC)ccc12
3. CC(CCc1ccccc1)NCC(O)c1ccc(O)c(C(N)=O)c1 (configuration not stated)
4. CN(C(=O)C(Cl)Cl)c1ccc(OC(=O)c2ccco2)cc1
5. COc1cc(C(=O)N2CCOCC2)cc(OC)c1OC
6. CCOC(=O)c1ccc(O)cc1
7. CNCc1ccccc1

Completion:
[1.21, 0.93, 1.24, 0.99, 1.07, 0.86, 1.06]

Please supply normalised cell number for each of the following items, keeping them in order.
1. CC1(C)S[C@@H]2[C@H](NC(=O)Cc3ccccc3)C(=O)N2[C@H]1C(=O)O
2. O=C1C=CC2=C3c4cc(O)c(O)cc4CC3(O)COC2=C1O (configuration not stated)

Completion:
[0.94, 0.89]

Prompt: For CC[C@H]1OC(=O)C[C@@H](O)[C@H](C)[C@@H](O[C@@H]2O[C@H](C)[C@@H](O[C@H]3C[C@@](C)(O)[C@@H](O)[C@H](C)O3)[C@H](N(C)C)[C@H]2O)[C@@H](CC=O)C[C@@H](C)C(=O)/C=C/C(C)=C/[C@@H]1CO[C@@H]1O[C@H](C)[C@@H](O)[C@@H](OC)[C@H]1OC , what is its reported normalised cell number?
Completion: 1.08

###

# assay.explanation: liver-stage malaria parasite growth inhibition, primary screen, cell-based, HepG2, luciferase luminescence, HepG2 viability (AID 624349);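 further: 100% = mean of DMSO negative control wells on the same plate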
# details: P. berghei liver stage in HepG2, luciferase luminescence, concentration not given here; measured here: HepG2 viability without parasites
Exercise: state measured viability for each of the molecules provided.
Numbers only, in %.

Examples with their reported viability follow.
COc1cc(N)c(Cl)cc1C(=O)NC1CCN(CCCOc2ccc(F)cc2)CC1OC (stereo not given)    81.1
Cc1cc(C(C#N)c2ccc(Cl)cc2)c(Cl)cc1NC(=O)c1cc(I)cc(I)c1O (stereo not given)    94.5
Clc1ccc(Nc2nnc(Cc3ccncc3)c3ccccc23)cc1    144
CN1CCN(c2c(F)cc3c(=O)c(C(=O)O)cn(CCF)c3c2F)CC1    62.5
CC(O)Cn1cnc2c1c(=O)n(C)c(=O)n2C (stereo not given)    89

Provide the reported viability of each entry below, same order.
1. CCCNC(C)(C)COC(=O)c1ccccc1
2. C[N+](C)(C)CC(O)CC(=O)O (stereo not given)
3. CC(C)(C)NC[C@H](O)COc1cccc2c1CCCC2=O
4. O=c1cc(-c2ccccc2)oc2cc(O)c(O)c(O)c12
5. CC(=O)O[C@H]1C[C@@]2(C)[C@@H](C[C@@H](O)[C@H]3[C@@]4(C)CC[C@@H](O)[C@@H](C)[C@@H]4CC[C@@]32C)/C1=C(\CCC=C(C)C)C(=O)O

Completion:
1. 69.4
2. 63.9
3. 89.1
4. 91.4
5. 78.6
